B1: PKD2L1 (parent)
chain: TLARCAKDILGFAVMFFIVFFAYA

# Variants of: B1
# ASSAY NAME: protein stability index of a GFP-peptide fusion (GPS, HEK-293T) (PSI 1-6); higher = more stable;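 also: lentivirally expressed fusions sorted by FACS into six bins by GFP to DsRed ratio, PSI derived from sequencing read proportions per bin multiplied by bin number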
# RUN PARAMETERS: c terminus: a fixed tail appended
Give measured protein stability index for each item. Keep answers brief.
Returns: the value as a bare number; no unit string appended.

Measured protein stability index of TLARCAKDILGFAVMFFIVFFVYA [A22V] : 1.42

Measured protein stability index of TLARCAKDILGCAVMFFIVFFAYA [F12C] : 1.87

Measured protein stability index of TPARCAKDILGFAVMFFIVFFAYA [L2P] : 3.29

Measured protein stability index of TLARRAKDILGFAVMFFIVFFAYA [C5R] : 2.01

Measured protein stability index of TLARCAKDILGFAVMFFIVFFARA [Y23R] : 1.42

Measured protein stability index of TLARCAKDILGFAVMFFIVFFAYI [A24I] : 1.68

Measured protein stability index of TLARCAKDILGFAVMFFIVFDAYA [F21D] : 3.21

Measured protein stability index of TLARCAKDILGRAVMFFIVFFAYA [F12R] : 2.02

Measured protein stability index of TLARCAKDILGFAVMFFYVFFAYA [I18Y] : 3.2

Measured protein stability index of TLARCAKDILGFAVMTFIVFFAYA [F16T] : 2.41

Measured protein stability index of TTARCAKDILGFAVMFFIVFFAYA [L2T] : 4.12
